Assay Method Text: Metabolic stability in mouse microsomes assessed as compound remaining at 1 uM after 1 hr
Assay type: ADME, Microsome
Experimental Setup: read-out: Stability
Measurement Label: remaining at 1 h, 1 µM (%)

Solved cases below.
| Smiles Input | remaining at 1 h, 1 µM [%] |
| --- | --- |
| C[C@H]1CN([C@@H](C)CO)C(=O)c2cccc(NC(=O)c3ccncc3)c2O[C@@H]1CN(C)Cc1ccc(Oc2ccccc2)cc1 | 77 |
| C[C@@H]1CN([C@@H](C)CO)C(=O)c2cccc(NC(=O)c3ccncc3)c2O[C@H]1CN(C)Cc1ccc(Oc2ccccc2)cc1 | 2 |

1 = C[C@H](CO)N1C[C@H](C)[C@@H](CN(C)Cc2ccc(Oc3ccccc3)cc2)Oc2c(NC(=O)c3ccncc3)cccc2C1=O
2 = C[C@@H]1CN([C@H](C)CO)C(=O)c2cccc(NC(=O)c3ccncc3)c2O[C@H]1CN(C)Cc1ccc(Oc2ccccc2)cc1
Name the one with the greater remaining at 1 h, 1 µM value, either 1 or 2 as given. Pick one; state its label.
1
